biological target: hNET (Homo sapiens, UniProt P23975); construct: expressed in transfected cells; host or cells: HEK-293 derived cell line, stably transfected; membrane preparation; assay: hNET binding assay (Assay 1); conditions: hNET binding assay; read-out: NET pKi (converted)
Sequence (P23975 whole entry): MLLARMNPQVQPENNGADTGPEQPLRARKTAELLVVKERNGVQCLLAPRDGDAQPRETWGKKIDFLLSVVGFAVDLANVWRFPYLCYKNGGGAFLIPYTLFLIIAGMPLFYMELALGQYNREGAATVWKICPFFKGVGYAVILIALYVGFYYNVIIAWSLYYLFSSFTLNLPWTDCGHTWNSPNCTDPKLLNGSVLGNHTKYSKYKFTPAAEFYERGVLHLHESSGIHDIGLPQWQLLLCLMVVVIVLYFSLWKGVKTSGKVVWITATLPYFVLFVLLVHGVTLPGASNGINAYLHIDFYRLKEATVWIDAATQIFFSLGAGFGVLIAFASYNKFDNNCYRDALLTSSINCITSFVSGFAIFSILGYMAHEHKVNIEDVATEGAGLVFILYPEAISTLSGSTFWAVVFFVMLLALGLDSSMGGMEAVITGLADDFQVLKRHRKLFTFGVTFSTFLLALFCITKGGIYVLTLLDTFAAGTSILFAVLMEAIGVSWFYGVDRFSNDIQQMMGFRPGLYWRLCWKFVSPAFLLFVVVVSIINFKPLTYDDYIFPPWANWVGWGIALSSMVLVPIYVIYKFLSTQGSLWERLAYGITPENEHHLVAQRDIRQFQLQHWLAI
Property: Ki; scope: individual compounds

compound	Ki / nM
CCOC(=O)c1cc(Cl)ccc1O[C@@H](c1ccccc1)[C@H]1CCNC1 [27-36]	3.98
COc1ccc(F)cc1O[C@@H](c1ccccc1)[C@H]1CCNC1 [29-24]	1
CCc1cc(F)ccc1OC(c1ccccc1)C1CCNC1 (stereo not shown) [27-23]	1
Fc1cccc(Cl)c1O[C@@H](c1ccccc1)[C@H]1CCNC1 [31-4]	0.126
Fc1ccc(F)c(OC(c2ccccc2)C2CCNC2)c1 (racemic) [29-1]	2
COc1ccc(F)cc1OC(c1cc(F)cc(F)c1)C1CCNC1 (stereo not shown) [30-6]	5.01
Fc1cc(F)cc([C@H](Oc2cc(Cl)ccc2Cl)[C@H]2CCNC2)c1 [30-4]	3.16
Cc1ccc(F)c(OC(c2ccccc2)C2CCNC2)c1 (stereo not shown) [29-8]	1.58
Cc1ccc(F)c(O[C@@H](c2ccccc2)[C@H]2CCNC2)c1 [29-9]	1.26
COc1cc(F)ccc1OC(c1cc(F)cc(F)c1)C1CCNC1 (stereo not shown) [28-17]	0.398
COC(=O)c1cc(Cl)ccc1OC(c1ccccc1)C1CCNC1 (stereo not shown) [27-34]	2.51
COc1ccc(F)cc1O[C@@H](c1cc(F)cc(F)c1)[C@H]1CCNC1 [30-5]	0.501
Clc1ccc(Cl)c(OC(c2ccccc2)C2CCNC2)c1 (stereo not shown) [29-11]	3.98
Fc1cc(F)cc(C(Oc2cc(Cl)ccc2F)C2CCNC2)c1 (stereo not shown) [30-2]	0.794
Cc1cc(F)ccc1O[C@@H](c1ccccc1)[C@H]1CCNC1 [27-14]	2
N#Cc1cccc([C@H](Oc2ccc(Cl)cc2F)[C@H]2CCNC2)c1 [28-3]	6.31
Cc1cccc(Cl)c1O[C@@H](c1ccccc1)[C@H]1CCNC1 [31-12]	1
Fc1ccccc1C(Oc1cccc(Cl)c1Cl)C1CCNC1 (stereo not shown) [Compound 26-1]	1.58
Fc1cc(Cl)cc(C(Oc2ccc(Cl)cc2F)C2CCNC2)c1 (stereo not shown) [28-11]	2.51
COc1ccc(Cl)cc1OC(c1cccc(Cl)c1)C1CCNC1 (stereo not shown) [30-9]	7.94
Cc1cccc(Cl)c1OC(c1ccccc1)C1CCNC1 (stereo not shown) [31-11]	2
Fc1cc(F)cc(C(Oc2cc(Cl)ccc2Cl)C2CCNC2)c1 (stereo not shown) [30-3]	3.98
Fc1ccc(Cl)cc1O[C@@H](c1ccccc1)[C@H]1CCNC1 [29-5]	0.501
Cc1ccc(F)cc1OC(c1ccccc1)C1CCNC1 (stereo not shown) [29-15]	3.98
Clc1cccc(C(Oc2cccc(Cl)c2Cl)C2CCNC2)c1 (stereo not shown) [Compound 26-3]	5.01
COc1cccc(C(Oc2cccc(Cl)c2Cl)C2CCNC2)c1 (stereo not shown) [Compound 26-6]	3.98
COc1ccc(Cl)cc1OC(c1ccccc1)C1CCNC1 (stereo not shown) [29-22]	2.51
Fc1ccc(F)c(O[C@H](c2ccccc2)[C@@H]2CCNC2)c1 [29-3]	7.94
Fc1ccc(Br)cc1OC(c1ccccc1)C1CCNC1 (stereo not shown) [29-7]	0.794
Cc1cccc(F)c1OC(c1ccccc1)C1CCNC1 (stereo not shown) [31-6]	1.58
Cc1ccc(OC(c2ccccc2)C2CCNC2)c(Cl)c1 (stereo not shown) [27-10]	0.631
